- measured target: T1, human C5a (source not stated) (human, UniProt P01031 678-751)
- T1 sequence: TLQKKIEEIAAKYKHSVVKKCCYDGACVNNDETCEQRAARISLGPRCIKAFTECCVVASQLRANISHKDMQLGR
- experiment: cell-based or functional assay
Each entry below lists one item and its recorded ROS IC50 value.
Could you give me the number in nM? Just the number is fine.

{"columns": ["binder", "test value"],
 "data": [
  ["Cab17 scFv (scFv, V domains shown) VH: VVQLVESGGGLVLPGGSLKVSCAASGFIFSDYYIQWVRQAPGKGPEWVGLIRNKAVGETVQYAASLKGRFTISRDDSKSIAYLQMTSLKTEDTAMYYCVSRAGPPGLTWGQGVLVTVSS VL: DIVMIQNPLSLSVTPGEPASISCRSSQRLLASDGYTYVDWYLQKPGQSPQILIYGGSNRASGVPDRFSGSGSGTDFTLKISKVEAEDVGVYYCMQHKALPPTFGQGTKLEIK", 1.87],
  ["Cab26 scFv (scFv, V domains shown) VH: EVQLVESGGGLVLPGGSLKVSCAASGFIFSDYYIQWVRQAPGKGPEWVGLIRNKAVGETVQYAASLKGRFTISRDDSKSIAYLQMTSLKTEDTAMYYCVSRAGPPGLTWGQGVLVTISS VL: DAVMTQTPLSLPVTPGEPASISCRSSQSLLASDGYNYIDWYLQRPGQSPKVLIYGGSNRASGVPDRFSGSGSGTYFTLKISKVEAEDVGFYFCLQHRALPPTFGQGTKLEIK", 1.13]
]}

Moving on to the next binder.
Request: I am curious: what ROS IC50 value has been reported for Cab09 scFv (scFv, V domains shown) VH: EVQLVESGGGLVQPGGSLKVSCAASGFIFSDYYMQWVRQAPGKGPEWVGLIRKKVNGGTTEYAASVKGRFTISRDDSKSIAYLQMSSLKIEDTAVYYCVSRAGPPGLTWGQGVLVTISS VL: DIVMIQTPLSLPVTPGEPASISCRSSQSLLHSDGYTYVDWYLQKPGQSPQILIYGGSNRASGVPDRFSGSGSGTDFTLKITNVEAEDVGVYYCLQHKALPPTFGQGTKLEIK ?
Result: 1.54

Recorded values, source patent US20230257454A1.
